Assay: Human microsome stability assay
Type: in vitro ADME
Details: 1 µM test compound, 0.5 mg/mL liver microsomal protein, 37 °C
quantity-name: Clearance of Human microsome (mL/min/kg)

C[C@@H]1CN(c2ccc(C#N)c3ncccc23)C[C@H](CN2CCN(c3cc4c(cn3)C[C@H](C)NC4)CC2)O1 (single isomer, unassigned)
6.15
C[C@@H]1CN(c2cc(=O)n(C)c3ncccc23)C[C@H](CN2CCN(c3ccc4c(n3)CN[C@@H]4C)CC2)O1
8.54
C[C@@H]1CN(c2ccc(C#N)c3nccnc23)C[C@H](CN2CCN(c3cc4c(cn3)[C@H](C)NCC4)CC2)O1 (single isomer, unassigned)
7.83
C[C@@H]1CN(c2ccc(C#N)c3ncccc23)C[C@H](CN2CCN(c3cc4c(cn3)CCNC4)CC2)O1
6.43
C[C@@H]1CN(c2ccc(C#N)c3ncccc23)C[C@H](CN2CCN(c3ccc4c(c3)C(O)CNC4)CC2)O1 (stereo partly drawn)
6.82
C[C@@H]1CN(c2ccc(C#N)c3ncccc23)C[C@H](CN2CCN(c3ccc4c(c3)CCNC4CO)CC2)O1 (stereo partly drawn)
6.15
